experimental-target: T1, Y2 receptor (human, UniProt P49146 1-381)
T1 construct: whole, on cells; Assayed as membrane homogenates of SK-N-BE2 cells, not intact cells
T1 sequence (looked up): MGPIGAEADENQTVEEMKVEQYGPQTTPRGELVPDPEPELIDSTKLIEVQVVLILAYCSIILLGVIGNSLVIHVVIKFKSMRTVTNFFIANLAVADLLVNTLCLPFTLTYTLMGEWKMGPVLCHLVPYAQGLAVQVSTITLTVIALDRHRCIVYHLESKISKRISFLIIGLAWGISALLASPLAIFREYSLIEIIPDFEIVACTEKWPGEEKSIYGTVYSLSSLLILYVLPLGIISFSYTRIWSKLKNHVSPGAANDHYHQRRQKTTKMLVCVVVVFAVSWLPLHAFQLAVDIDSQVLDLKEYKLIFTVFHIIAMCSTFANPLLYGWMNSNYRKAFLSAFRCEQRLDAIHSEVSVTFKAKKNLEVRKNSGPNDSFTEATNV
measurement-description: radioligand competition against [125I]PYY(3-36), SK-N-BE2 membranes, Cheng-Prusoff
Non-standard residues stand in square brackets, D forms with d. 2Pal = N[C@@H](Cc1ccccn1)C(=O)O
quantity-name: Ki

Q: Read the entry Ac-ASLR[2Pal]YLNLVTRQRY-NH2 (SMILES CC(=O)N[C@@H](C)C(=O)N[C@@H](CO)C(=O)N[C@@H](CC(C)C)C(=O)N[C@@H](CCCNC(=N)N)C(=O)N[C@@H](Cc1ccccn1)C(=O)N[C@@H](Cc1ccc(O)cc1)C(=O)N[C@@H](CC(C)C)C(=O)N[C@@H](CC(N)=O)C(=O)N[C@@H](CC(C)C)C(=O)N[C@H](C(=O)N[C@H](C(=O)N[C@@H](CCCNC(=N)N)C(=O)N[C@@H](CCC(N)=O)C(=O)N[C@@H](CCCNC(=N)N)C(=O)N[C@@H](Cc1ccc(O)cc1)C(N)=O)[C@@H](C)O)C(C)C, Synthetic analog of human PYY(22-36)) [Ac-[2Pal^26]hPYY(22-36)NH2] and write its reported Ki.
A: < 1000 nM
